TEST SUMMARY: Compound toxicity, ATPLite total ATP levels
Assay type: cell-based
ASSAY CONTEXT: human, HepG2 cells, 50% reduction of total ATP levels (ATPLite), three days after compound addition
ASSAY ENDPOINT: CC50 at 3 days

Reported CC50 at 3 days, molecule O=S(=O)(NC1CC1)N[C@H]1CC2=C(c3cnn(C(F)F)c3)[C@H](c3ccc(F)cc3Cl)N=C(c3nccs3)N2C1 : ____
10 to 25 µM

Reported CC50 at 3 days, molecule CN(C)S(=O)(=O)N[C@H]1CC2=C(c3cnn(C(F)F)c3)[C@H](c3ccc(F)cc3Cl)N=C(c3nccs3)N2C1 : ____
> 25 µM

Reported CC50 at 3 days, molecule O=S(=O)(N[C@H]1CC2=C(c3cnn(C(F)(F)F)c3)[C@H](c3ccc(F)cc3Cl)N=C(c3nccs3)N2C1)C1CC1 : ____
10 to 25 µM

Reported CC50 at 3 days, molecule O=S(=O)(N[C@H]1CC2=C(c3ccn(C4CC4)n3)[C@H](c3ccc(F)cc3Cl)N=C(c3nccs3)N2C1)C1CC1 : ____
> 25 µM

Reported CC50 at 3 days, molecule CNS(=O)(=O)N[C@H]1CC2=C(c3cnn(C(F)F)c3)[C@H](c3ccc(F)cc3Cl)N=C(c3nccs3)N2C1 : ____
> 25 µM

Reported CC50 at 3 days, molecule NS(=O)(=O)N[C@H]1CC2=C(c3cnn(C(F)F)c3)[C@H](c3ccc(F)cc3Cl)N=C(c3nccs3)N2C1 : ____
> 25 µM

Reported CC50 at 3 days, molecule O=C1N[C@@](CO)(CC2=C(c3ccn(C(F)F)n3)[C@H](c3ccc(F)cc3Cl)N=C(c3nccs3)N2)CO1 : ____
> 25 µM

Reported CC50 at 3 days, molecule O=S(=O)(N[C@H]1CC2=C(c3cnn(C(F)F)c3)[C@H](c3ccc(F)cc3Cl)N=C(c3nccs3)N2C1)C1CCOCC1 : ____
> 25 µM

Reported CC50 at 3 days, molecule COCCS(=O)(=O)N[C@H]1CC2=C(c3cnn(C(F)F)c3)[C@H](c3ccc(F)cc3Cl)N=C(c3nccs3)N2C1 : ____
> 25 µM

Reported CC50 at 3 days, molecule O=S(=O)(N[C@H]1CC2=C(c3cnn(C(F)F)c3)[C@H](c3ccc(F)cc3Cl)N=C(c3nccs3)N2C1)C1CC1 : ____
> 25 µM

Reported CC50 at 3 days, molecule O=S(=O)(N[C@H]1CC2=C(c3cnn(C4CC4)c3)[C@H](c3ccc(F)cc3Cl)N=C(c3nccs3)N2C1)C1CC1 : ____
> 25 µM

Reported CC50 at 3 days, molecule COC(=O)N[C@]1(CO)CC2=C(c3ccn(C(F)F)n3)[C@H](c3ccc(F)cc3Cl)N=C(c3nccs3)N2C1 : ____
> 25 µM

Reported CC50 at 3 days, molecule CS(=O)(=O)N[C@H]1CC2=C(c3cnn(C(F)F)c3)[C@H](c3ccc(F)cc3Cl)N=C(c3nccs3)N2C1 : ____
> 25 µM
